Reported Kd is given for each of the following binders.
target.desc: T1, EsCas13d, nuclease-dead (Eubacterium siraeum, UniProt B0MS50, R295A;H300A;R849A;H854A)
T1 sequence: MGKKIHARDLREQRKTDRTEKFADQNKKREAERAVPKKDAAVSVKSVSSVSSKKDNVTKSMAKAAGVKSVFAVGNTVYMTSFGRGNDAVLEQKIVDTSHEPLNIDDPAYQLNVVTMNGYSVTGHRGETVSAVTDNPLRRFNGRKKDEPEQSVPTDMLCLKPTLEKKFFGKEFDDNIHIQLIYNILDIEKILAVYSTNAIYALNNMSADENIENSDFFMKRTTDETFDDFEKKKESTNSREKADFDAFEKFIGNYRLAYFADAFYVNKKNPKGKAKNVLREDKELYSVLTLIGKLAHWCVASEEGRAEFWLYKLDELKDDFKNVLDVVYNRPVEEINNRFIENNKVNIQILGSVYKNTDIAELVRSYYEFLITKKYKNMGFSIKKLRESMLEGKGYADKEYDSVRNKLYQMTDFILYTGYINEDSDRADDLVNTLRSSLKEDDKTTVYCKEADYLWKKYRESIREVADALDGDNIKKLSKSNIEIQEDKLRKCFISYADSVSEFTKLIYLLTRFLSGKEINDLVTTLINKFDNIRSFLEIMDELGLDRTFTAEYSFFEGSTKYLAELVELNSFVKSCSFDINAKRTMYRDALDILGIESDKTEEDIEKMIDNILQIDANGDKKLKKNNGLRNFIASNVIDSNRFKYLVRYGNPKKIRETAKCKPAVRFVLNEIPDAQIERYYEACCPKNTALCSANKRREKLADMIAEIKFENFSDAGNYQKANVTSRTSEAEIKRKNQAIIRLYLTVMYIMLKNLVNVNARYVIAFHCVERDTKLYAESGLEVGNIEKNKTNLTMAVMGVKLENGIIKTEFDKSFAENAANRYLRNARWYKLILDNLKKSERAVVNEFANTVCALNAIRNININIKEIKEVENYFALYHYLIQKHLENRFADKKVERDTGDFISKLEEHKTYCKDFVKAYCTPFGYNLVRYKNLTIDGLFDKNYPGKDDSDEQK
protocol.notes: crRNA (strand 1, pre-loaded); Mg2+; 40 mM Tris-HCl pH 7.5, 150 mM NaCl, 6 mM MgCl2, 1 mM DTT, 0.1% Tween-20, 0.2 mg/ml BSA; 25 C; 10 min per concentration, then washed
assay.context: tags: His6-TwinStrep-SUMO cleaved; N-terminal SNAP kept (SNAP-Surface 488); label: 3' end held by stalled T7 RNA polymerase
Kindly provide the numeric value in nM only, without the unit symbol.

target 1 MT 5'PFS GCC 3'PFS CAG (mixed) RNA 1: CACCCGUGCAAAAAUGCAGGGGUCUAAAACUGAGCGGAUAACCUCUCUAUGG RNA 2: GGGAAUGGAUCCACAUCUACGAAUUCGCCCCAUAGAGAGGUUAUCCGCUCACAGAGAUCGGAAGAGCACACGU
44

Pending binder:
Recorded Kd (binder target 3 U2A,C6G (mixed) RNA 1: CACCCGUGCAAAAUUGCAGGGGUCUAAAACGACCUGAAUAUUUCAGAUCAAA RNA 2: GGGAAUGGAUCCACAUCUACGAAUUCGUUUUUGAUCUGAAAUAUUGAGGACUGCAGAUCGGAAGAGCACACGU ): 37
